system: AMBEL (Ragweed, Common); test: Postemergence herbicidal evaluation; type: in vivo, Ambrosia artemisifolia; conditions: Rate 0.0158 kg/ha
Let's look at some molecules and their measured Postemergence herbicidal rating AMBEL.
Give the value as a plain number.

Example results:
CCOC(=O)CN1C(=O)C(CC(=O)NC)SC1=Nc1cc(-n2c(=O)cc(C(F)(F)F)n(C)c2=O)c(F)cc1Cl (stereo not shown) [Compound 57] | 9.0
CCOC(=O)CCN1C(=O)CSC1=Nc1cc(-n2c(=O)cc(C(F)(F)F)n(C)c2=O)c(Cl)cc1Cl [Compound 32] | 3.0

// recorded Postemergence herbicidal rating AMBEL for Cn1c(C(F)(F)F)cc(=O)n(-c2cc(N=C3SCC(=O)N3CCC(=O)O)c(Cl)cc2F)c1=O [Compound 30] : 0.0

// recorded Postemergence herbicidal rating AMBEL for CCOP(=O)(CN1C(=O)CSC1=Nc1cc(-n2c(=O)cc(C(F)(F)F)n(C)c2=O)c(F)cc1Cl)OCC [Compound 35] : 9.0

* * *

test system: IPOHE (Morningglory, Ivyleaf); assay: Postemergence herbicidal evaluation; assay type: in vivo, Ipomoea hederacea; settings: postemergence, rate 0.0156 kg/ha
measurement_type: herbicidal rating IPOHE

Example results:
C=CCN1C(=O)C(CC(=O)NO)SC1=Nc1cc(-n2c(=O)cc(C(F)(F)F)n(C)c2=O)c(F)cc1Cl (centres unmarked) | 1.0
COc1cccc(CN2C(=O)CSC2=Nc2cc(-n3c(=O)cc(C(F)(F)F)n(C)c3=O)c(F)cc2Cl)c1 | 9.0
COC(=O)CSCCN1C(=O)CSC1=Nc1cc(-n2c(=O)cc(C(F)(F)F)n(C)c2=O)c(F)cc1Cl | 9.0
CCOC(=O)CN1C(=O)CSC1=Nc1cc(N2C(=O)CC(C(F)(F)F)CC2=O)c(F)cc1Cl | 9.0

Okay, now this compound:
Entry "Cn1c(C(F)(F)F)cc(=O)n(-c2cc(N=C3SCC(=O)N3Cc3ccc(Cl)cc3)c(Cl)cc2F)c1=O" under IPOHE (Morningglory, Ivyleaf) had herbicidal rating IPOHE of 9.0

* * *

Let's look at some molecules and their measured Preemergence herbicidal rating CASOB.
tested on: CASOB (Sicklepod); experiment: Preemergence herbicidal evaluation; assay type: in vivo, Cassia obtusifolia; details: rate 0.2500 kg/ha; rated 4-5 weeks after treatment
Give the value as a plain number.

Example results:
CCOC(=O)[C@H](C)N1C(=O)CSC1=Nc1cc(-n2c(=O)cc(C(F)(F)F)n(C)c2=O)c(F)cc1Cl | 1.0
CCOC(=O)CN1C(=O)C(CC(=O)OC(C)C)SC1=Nc1cc(-n2c(=O)cc(C(F)(F)F)n(C)c2=O)c(F)cc1Cl (stereo not shown) | 5.5

// recorded Preemergence herbicidal rating CASOB for CCOC(=O)CN1C(=O)C(C(=O)OCC)SC1=Nc1cc(-n2c(=O)cc(C(F)(F)F)n(C)c2=O)c(F)cc1Cl (stereo not shown) : 2.0

// recorded Preemergence herbicidal rating CASOB for CCOC(=O)CN1C(=O)C(SC)SC1=Nc1cc(-n2c(=O)cc(C(F)(F)F)n(C)c2=O)c(F)cc1Cl (stereo not shown) : 9.0

* * *

system: CYPSE (Flatsedge); assay: Postemergence weed control under flooded paddy conditions; assay type: in vivo, Cyperus serotinus; conditions: Rate 0.2500 kg/ha, postemergence weeds, rated 3 to 4 weeks after treatment
Let's look at some compounds and their measured Herbicidal rating CYPSE.
Give the value as a plain number.

Example results:
COC(=O)[C@H](Cc1ccc([N+](=O)[O-])cc1)N1C(=O)CSC1=Nc1cc(-n2c(=O)cc(C(F)(F)F)n(C)c2=O)c(F)cc1Cl | 9.0
Cn1c(C(F)(F)F)cc(=O)n(-c2cc(N=C3SCC(=O)N3CC(=O)OCC#N)c(Cl)cc2F)c1=O | 7.0

Okay, now this compound:
// recorded Herbicidal rating CYPSE for CCOC(=O)CN1C(=O)C(CC(=O)OCCF)SC1=Nc1cc(-n2c(=O)cc(C(F)(F)F)n(C)c2=O)c(F)cc1Cl (stereo not drawn) : 4.0

* * *

test system: ECHORC (Watergrass (Calif.)); assay: Postemergence weed control under flooded paddy conditions; type: in vivo, Echinochloa oryzoides; details: Rate 0.0625 kg/ha, postemergence weeds, rated 3 to 4 weeks after treatment
Let's look at some compounds and their measured Herbicidal rating ECHORC.
Give the value as a plain number.

Example results:
COC(=O)[C@H](Cc1ccccc1)N1C(=O)CS/C1=N/c1cc(-n2c(=O)cc(C(F)(F)F)n(C)c2=O)c(F)cc1Cl | 9.0
C=CCN1C(=O)C(CC(=O)OC(C)C)SC1=Nc1cc(-n2c(=O)cc(C(F)(F)F)n(C)c2=O)c(F)cc1Cl (stereo not drawn) | 7.0

Okay, now this compound:
Entry CCOC(=O)CN1C(=O)C(Cc2ccccc2OC(C)C(=O)O)S/C1=N/c1cc(-n2c(=O)cc(C(F)(F)F)n(C)c2=O)c(F)cc1Cl (stereo not drawn) under ECHORC (Watergrass (Calif.)) had Herbicidal rating ECHORC of 0.0

* * *

Let's look at some molecules and their measured Herbicidal rating MOOVA.
Test system: MOOVA (Monochoria)
Test: Postemergence weed control under flooded paddy conditions
Format: in vivo, Monochoria vaginalis
Conditions: Rate 0.0625 kg/ha, postemergence weeds, rated 3 to 4 weeks after treatment
Excerpt: Results of herbicide evaluation are expressed on a rating scale (0-9). The scale is based upon a visual observation of plant stand, vigor, malformation, size, chlorosis and overall plant appearance as compared with a control. Plastic containers containing weeds which are 3 to 5 cm tall and rice seedlings at the 1.5 to 2.5 leaf stage are flooded with water. […] The compounds evaluated are reported by compound number given in Example 37.
Give the value as a plain number.

C=CCN1C(=O)C(CC(N)=O)SC1=Nc1cc(-n2c(=O)cc(C(F)(F)F)n(C)c2=O)c(F)cc1Cl (stereo not shown) | 9.0

// recorded Herbicidal rating MOOVA for C=CCN1C(=O)C(CC(=O)OC(C)C(=O)OCC)SC1=Nc1cc(-n2c(=O)ccn(C)c2=O)c(F)cc1Cl (stereo not shown) : 9.0

// recorded Herbicidal rating MOOVA for CCOC(=O)CN1C(=O)C(CC(=O)NS(=O)(=O)c2ccccc2)SC1=Nc1cc(-n2c(=O)cc(C(F)(F)F)n(C)c2=O)c(F)cc1Cl (stereo not shown) : 9.0

// recorded Herbicidal rating MOOVA for CCOC(=O)CN1C(=O)C(CC(=O)OC(C)C(=O)OCC)S/C1=N/c1cc(-n2c(=O)cc(C(F)(F)F)n(C)c2=O)c(F)cc1Cl (stereo not shown) : 9.0

* * *

Let's look at some compounds and their measured Postemergence herbicidal rating ABUTH.
test system: ABUTH (Velvetleaf); experiment: Postemergence herbicidal evaluation; assay type: in vivo, Abutilon theophrasti; conditions: Rate 0.0315 kg/ha
Give the value as a plain number.

// recorded Postemergence herbicidal rating ABUTH for CCOC(=O)CN1C(=O)C(CC(=O)O)O/C1=N/c1cc(-n2c(=O)cc(C(F)(F)F)n(C)c2=O)c(F)cc1Cl (stereo not shown) [Compound 41] : 9.0

// recorded Postemergence herbicidal rating ABUTH for Cn1c(C(F)(F)F)cc(=O)n(-c2cc(/N=C3/SCC(=O)N3CC(=O)O)c(Cl)cc2F)c1=O [Compound 52] : 9.0

// recorded Postemergence herbicidal rating ABUTH for CCOP(=O)(CN1C(=O)CSC1=Nc1cc(-n2c(=O)cc(C(F)(F)F)n(C)c2=O)c(F)cc1Cl)OCC [Compound 35] : 9.0

// recorded Postemergence herbicidal rating ABUTH for C=CCN1C(=O)C(CC(=O)O)SC1=Nc1cc(-n2c(=O)cc(C(F)(F)F)n(C)c2=O)c(F)cc1Cl (stereo not shown) [Compound 62] : 9.0

* * *

tested on: CHEAL (Lambsquarters, Common); assay: Preemergence herbicidal evaluation; type: in vivo, Chenopodium album; details: rate 0.1250 kg/ha; rated 4-5 weeks after treatment
Let's look at some molecules and their measured Preemergence herbicidal rating CHEAL.
Give the value as a plain number.

Example results:
Cn1c(C(F)(F)F)cc(=O)n(-c2cc(N=C3SCC(=O)N3[C@@H](Cc3ccccc3)C(=O)O)c(Cl)cc2F)c1=O [Compound 53] | 9.0
CCOC(=O)CN1C(=O)C(CC(=O)OCc2ccccc2)OC1=Nc1cc(-n2c(=O)cc(C(F)(F)F)n(C)c2=O)c(F)cc1Cl (stereo not drawn) [Compound 40] | 9.0
Cn1c(C(F)(F)F)cc(=O)n(-c2cc(N=C3SCC(=O)N3CCC(=O)O)c(Cl)cc2F)c1=O [Compound 30] | 9.0

// recorded Preemergence herbicidal rating CHEAL for CCOC(=O)CCN1C(=O)CSC1=Nc1cc(-n2c(=O)cc(C(F)(F)F)n(C)c2=O)c(Cl)cc1Cl [Compound 32] : 9.0

// recorded Preemergence herbicidal rating CHEAL for CCOC(=O)CN1C(=O)C(Cc2ccccc2OC(C)C(=O)OC)SC1=Nc1cc(-n2c(=O)cc(C(F)(F)F)n(C)c2=O)c(F)cc1Cl (stereo not drawn) [Compound 50] : 9.0

// recorded Preemergence herbicidal rating CHEAL for CCOC(=O)CN1C(=O)C(CC(=O)NS(=O)(=O)C(C)C)SC1=Nc1cc(-n2c(=O)cc(C(F)(F)F)n(C)c2=O)c(F)cc1Cl (stereo not drawn) [Compound 117] : 6.0
